Let's look at some compounds and their measured IC50.
# System tested: Polθ protein (amino acids 2-2590) (Homo sapiens, UniProt O75417)
# Sequence (O75417 2-2590): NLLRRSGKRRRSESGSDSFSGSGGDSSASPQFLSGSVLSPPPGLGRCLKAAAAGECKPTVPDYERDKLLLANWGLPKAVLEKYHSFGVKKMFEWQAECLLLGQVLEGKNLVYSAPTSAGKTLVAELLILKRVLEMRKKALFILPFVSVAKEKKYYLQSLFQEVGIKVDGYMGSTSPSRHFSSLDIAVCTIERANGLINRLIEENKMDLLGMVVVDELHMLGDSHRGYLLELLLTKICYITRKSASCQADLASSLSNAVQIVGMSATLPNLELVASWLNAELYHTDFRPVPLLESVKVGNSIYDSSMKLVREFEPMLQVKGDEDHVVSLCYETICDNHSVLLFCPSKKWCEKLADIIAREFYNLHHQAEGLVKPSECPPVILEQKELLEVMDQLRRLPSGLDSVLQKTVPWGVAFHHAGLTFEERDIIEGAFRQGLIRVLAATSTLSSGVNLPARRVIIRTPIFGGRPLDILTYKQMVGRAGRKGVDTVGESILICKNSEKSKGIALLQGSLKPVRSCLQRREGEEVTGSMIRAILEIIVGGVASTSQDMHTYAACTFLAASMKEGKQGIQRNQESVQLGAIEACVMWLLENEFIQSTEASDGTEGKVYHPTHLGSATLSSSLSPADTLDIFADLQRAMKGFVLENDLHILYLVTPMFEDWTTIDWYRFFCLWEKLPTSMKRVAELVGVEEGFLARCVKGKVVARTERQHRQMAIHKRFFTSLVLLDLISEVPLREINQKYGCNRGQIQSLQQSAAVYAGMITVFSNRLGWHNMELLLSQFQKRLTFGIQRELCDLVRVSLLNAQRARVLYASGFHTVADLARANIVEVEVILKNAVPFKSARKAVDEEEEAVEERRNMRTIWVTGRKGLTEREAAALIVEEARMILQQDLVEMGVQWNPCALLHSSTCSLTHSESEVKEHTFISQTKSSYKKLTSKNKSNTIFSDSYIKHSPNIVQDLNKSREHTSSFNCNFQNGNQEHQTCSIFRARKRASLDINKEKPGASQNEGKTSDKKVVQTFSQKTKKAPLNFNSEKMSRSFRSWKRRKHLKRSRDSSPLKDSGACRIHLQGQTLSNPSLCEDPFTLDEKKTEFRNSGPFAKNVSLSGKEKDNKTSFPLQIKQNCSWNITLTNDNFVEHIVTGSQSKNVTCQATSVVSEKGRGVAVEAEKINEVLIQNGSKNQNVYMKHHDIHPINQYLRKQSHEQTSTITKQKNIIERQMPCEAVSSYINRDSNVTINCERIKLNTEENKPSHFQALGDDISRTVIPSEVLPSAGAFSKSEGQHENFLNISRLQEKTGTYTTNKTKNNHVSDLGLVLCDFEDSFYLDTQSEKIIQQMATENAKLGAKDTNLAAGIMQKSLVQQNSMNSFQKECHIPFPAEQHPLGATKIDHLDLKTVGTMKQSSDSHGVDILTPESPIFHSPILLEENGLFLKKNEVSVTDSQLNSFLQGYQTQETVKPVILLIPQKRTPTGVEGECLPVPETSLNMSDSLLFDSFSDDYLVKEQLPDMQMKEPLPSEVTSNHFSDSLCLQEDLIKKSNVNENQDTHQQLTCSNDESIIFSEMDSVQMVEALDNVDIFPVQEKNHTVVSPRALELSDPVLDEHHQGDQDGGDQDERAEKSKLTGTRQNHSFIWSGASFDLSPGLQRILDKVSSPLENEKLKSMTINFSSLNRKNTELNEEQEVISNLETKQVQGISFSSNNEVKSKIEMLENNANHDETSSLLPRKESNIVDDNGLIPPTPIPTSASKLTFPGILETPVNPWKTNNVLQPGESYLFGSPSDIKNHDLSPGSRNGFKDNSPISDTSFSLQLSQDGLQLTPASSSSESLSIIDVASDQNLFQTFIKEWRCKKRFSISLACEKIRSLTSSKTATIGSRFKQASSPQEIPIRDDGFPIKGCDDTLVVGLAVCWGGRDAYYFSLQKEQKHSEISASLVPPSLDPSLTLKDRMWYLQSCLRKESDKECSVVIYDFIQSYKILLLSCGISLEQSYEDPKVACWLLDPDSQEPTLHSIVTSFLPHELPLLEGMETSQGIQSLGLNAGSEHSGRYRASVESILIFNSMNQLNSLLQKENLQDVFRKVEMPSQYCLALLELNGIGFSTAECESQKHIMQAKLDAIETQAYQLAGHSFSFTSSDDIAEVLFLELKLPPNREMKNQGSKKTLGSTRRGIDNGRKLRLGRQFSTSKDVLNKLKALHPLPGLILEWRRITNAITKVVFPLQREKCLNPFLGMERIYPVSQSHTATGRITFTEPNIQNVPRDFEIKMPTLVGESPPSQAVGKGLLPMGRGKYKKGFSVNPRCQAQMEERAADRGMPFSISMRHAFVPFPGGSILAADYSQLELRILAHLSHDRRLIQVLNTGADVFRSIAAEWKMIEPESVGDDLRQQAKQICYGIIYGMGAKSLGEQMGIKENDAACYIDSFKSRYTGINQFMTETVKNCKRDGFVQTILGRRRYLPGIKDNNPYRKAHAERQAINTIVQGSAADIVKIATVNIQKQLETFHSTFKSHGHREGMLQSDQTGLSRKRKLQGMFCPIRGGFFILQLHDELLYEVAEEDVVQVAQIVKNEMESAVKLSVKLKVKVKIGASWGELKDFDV
# Assay explanation: Polθ full length enzyme potency assay (PicoGreen)
# Condition summary: Polθ IC50 (nM), full length N-His, C-term FLAG tagged Polθ, PicoGreen fluorescence, 12 point concentration response
Write it as a number; the unit nM goes unstated.

Molecule	System tested	Unit spec	IC50
CCN(C(=O)[C@@H]1C[C@H](N(C)[C@H]2CCC[C@H]2O)CN1c1cc(C(F)(F)F)cc(C)n1)c1ccc(F)c(F)c1	Polθ protein (amino acids 2-2590) (Homo sapiens, UniProt O75417)	nM	160
COc1cc(N(C)C(=O)[C@@H]2COC(=O)N2c2cc(C(F)(F)F)cc(C)n2)ccc1F	Polθ protein (amino acids 2-2590) (Homo sapiens, UniProt O75417)	nM	226
Cc1cc(OC(F)F)cc(N2C(=O)OC[C@H]2C(=O)N(C)c2ccc(F)c(Cl)c2)n1	Polθ protein (amino acids 2-2590) (Homo sapiens, UniProt O75417)	nM	167

// moving on: another record for IC50
Consider the compound shown here: Cc1cc(C(F)(F)F)cc(N2C(=O)NC[C@H]2C(=O)N(C)c2ccc3c(F)c[nH]c3n2)n1 What is its recorded IC50?
6

====

# System tested: Polθ protein (amino acids 2-2590) (Homo sapiens)
# Assay explanation: Polθ full length enzyme potency assay (PicoGreen)
# Condition summary: Polθ IC50 (nM), full length N-His, C-term FLAG tagged Polθ, PicoGreen fluorescence, 12 point concentration response
Listed here are compounds together with their documented IC50.
Numbers only here, please. The scale is nM.

# example entries with known answers
Compound	IC50 / nM
Cc1cc(C(F)(F)F)cc(N2C(=O)[C@H](O)[C@H](O)[C@H]2C(=O)N(C)c2ccc(F)c(Cl)c2F)n1 [Example 71]	10
Cc1cc(C(F)(F)F)cc(N2C(=O)N(CCNS(C)(=O)=O)C[C@H]2C(=O)N(C)c2ccc(F)c(Cl)c2)n1 [Example 187]	22
Cc1cc(C(F)(F)F)cc(N2C(=O)CC[C@H]2C(=O)N(C)c2ccc(F)c(C)n2)n1 [Example 60]	76
Cc1cc(C(F)(F)F)cc(N2C(=O)NC[C@H]2C(=O)N(C)c2ccc3sccc3n2)n1 [Example 237]	37
Cc1cc(C)c(C#N)c(N2C[C@@H](O)C[C@H]2C(=O)N(C)c2cccc(C(F)F)c2)n1 [Example 12]	710

Endpoint output: IC50 of Cc1cc(C(F)(F)F)cc(N2C(=O)NC[C@H]2C(=O)N(C)c2ccc3cnn(C)c3c2)n1 [Example 235] . Value?
27

Look up IC50: Cc1cc(C(F)(F)F)cc(N2C(=O)N(CCS(C)(=N)=O)C[C@H]2C(=O)N(C)c2ccc(F)c(Cl)c2F)n1 (some centres unmarked) [Example 212]
6

# query: IC50 of entry CCN(C(=O)[C@@H]1[C@H](O)[C@H](O)CN1c1nc(C)cc(C(F)(F)F)c1C#N)c1ccc(F)c(F)c1 [Example 56]
42

For CCN(C(=O)[C@@H]1C[C@@H](N)CN1c1nc(C)cc(C)c1C#N)c1cccc(C)c1 [Example 40] , what is its reported IC50?
1760

If you can, please state the reported IC50 value of Cc1cccc(N(C)C(=O)[C@@H]2[C@H](O)[C@H](O)CN2c2nc(C)cc(C(F)(F)F)c2C#N)c1 [Example 54] .
13

Suppose we examine the compound Cc1cc(C(C)C(F)(F)F)cc(N2C(=O)OC[C@H]2C(=O)N(C)c2ccc(F)c(Cl)c2)n1 (some centres unmarked) [Example 124] ; what IC50 value has been reported?
304

====

# System tested: Polθ protein (amino acids 2-2590) (Homo sapiens, UniProt O75417)
# Assay explanation: Polθ full length enzyme potency assay (PicoGreen)
# Condition summary: Polθ IC50 (nM), full length N-His, C-term FLAG tagged Polθ, PicoGreen fluorescence, 12 point concentration response
Property label: IC50 (nM)
A number alone suffices; assume nM.

Some entries whose results are on file:
Compound	Property label	Unit spec	Meas value
Cc1cc(C(F)(F)F)cc(N2C(=O)N(CCN3CCC3CO)C[C@H]2C(=O)N(C)c2ccc(F)c(Cl)c2F)n1 (stereo partly shown)	IC50	nM	10
Cc1cc(C(F)(F)F)c(C#N)c(N2C[C@@H](O)C[C@H]2C(=O)N(C)c2ccc(Cl)c(F)c2)n1	IC50	nM	33
Cc1cc(C(F)(F)F)cc(N2C(=O)N(CCN3CCC3)C[C@H]2C(=O)N(C)c2ccc(F)c(Cl)c2)n1	IC50	nM	12
Cc1cccc(N(C)C(=O)[C@@H]2[C@H](O)[C@H](O)CN2c2nc(C)cc(C)c2C#N)c1	IC50	nM	118
CCc1cc(N2C[C@@H](O)C[C@H]2C(=O)N(C)c2cccc(C)c2)ncc1C	IC50	nM	620

Would you kindly share the measured IC50 for [2H]C([2H])([2H])N(C(=O)[C@@H]1[C@H](O)[C@H](O)C(=O)N1c1cc(C(F)(F)F)cc(C)n1)c1ccc(F)c(Cl)c1F ?
3

# get_value(readout='IC50', item= CCN(C(=O)[C@@H]1C[C@H](N2CC(O)C2)CN1c1cc(C(F)(F)F)cc(C)n1)c1ccc(F)c(F)c1 )
100

====

# System tested: Polθ protein (amino acids 2-2590) (Homo sapiens, UniProt O75417)
# Assay explanation: Polθ full length enzyme potency assay (PicoGreen)
# Condition summary: Polθ IC50 (nM), full length N-His, C-term FLAG tagged Polθ, PicoGreen fluorescence, 12 point concentration response
# maps each entry to its IC50
Form entry: value (nM) — number only.

Compound	System tested	Property label	Unit spec	Meas value
CCc1cc(N(C)C(=O)[C@@H]2COC(=O)N2c2cc(C(F)(F)F)cc(C)n2)ccc1F [Example 110]	Polθ protein (amino acids 2-2590) (Homo sapiens, UniProt O75417)	IC50	nM	21

What value of measured IC50 is listed for Cc1cc(C(F)(F)F)c(C#N)c(N2CC[C@@H](O)[C@H]2C(=O)N(C)c2ccc(F)c(Cl)c2)n1 [Example 81] ?
8

Return reported IC50; argument: COc1cc(N(C)C(=O)[C@@H]2C[C@H](O)CN2c2nc(C)cc(C(F)(F)F)c2C#N)ccc1F [Example 16]
274

If you can, please state the reported IC50 value of Cc1cc(C(F)(F)F)cc(N2C(=O)N(CCOS(N)(=O)=O)C[C@H]2C(=O)N(C)c2ccc(F)c(Cl)c2F)n1 [Example 227] .
6

Data request, read-out IC50, for Cc1cc(C(F)(F)F)cc(N2C(=O)N(CCN3CCOCC3)C[C@H]2C(=O)N(C)c2ccc(F)c(Cl)c2)n1 [Example 194]
7

Query (compound): CCN(C(=O)[C@H]1C[C@@H](N(C)C2CCN(C(C)=O)C2)CN1c1nc(C)cc(C)c1C#N)c1cccc(C)c1 (stereo in doubt) [Example 52] ; field requested: IC50
588

Returns the measured IC50 for the input compound. Input: Cc1cc(C(F)(F)F)cc(N2C(=O)OC[C@H]2C(=O)N(C)c2ccc(Cl)c(F)c2F)n1 [Example 101]
23

====

# System tested: Polθ protein (amino acids 2-2590) (Homo sapiens)
# Assay explanation: Polθ full length enzyme potency assay (PicoGreen)
# Condition summary: Polθ IC50 (nM), full length N-His, C-term FLAG tagged Polθ, PicoGreen fluorescence, 12 point concentration response
Property label: log10 of IC50 (log10 of the value in nM)
# values: log10(IC50), units nM

Molecule	Property label	Meas value
CCN(C(=O)[C@@H]1C[C@H](N(C)[C@@H]2COCC[C@H]2O)CN1c1cc(C(F)(F)F)cc(C)n1)c1ccc(F)c(F)c1 [Example 140]	log10 of IC50	1.78
C=Cc1c(F)ccc(N(C)C(=O)[C@@H]2COC(=O)N2c2cc(C(F)(F)F)cc(C)n2)c1F [Example 107]	log10 of IC50	1.26
CCN(C(=O)[C@@H]1C[C@H](NC2CNC2)CN1c1nc(C)cc(C)c1C#N)c1cccc(C)c1 [Example 51]	log10 of IC50	3.19
Cc1cc(C(F)(F)F)cc(N2C(=O)N(CCS(C)(=O)=O)C[C@H]2C(=O)N(C)c2ccc(F)c(Cl)c2)n1 [Example 180]	log10 of IC50	0.95

What does the record list as log10 of IC50 for Cc1cc(C(F)(F)F)c(C#N)c(N2CCC[C@H]2C(=O)N(C)c2cc(Cl)c3ccn(C)c3n2)n1 [Example 244] ?
2.11

Please report the recorded log10 of IC50 for Cc1cc(C(F)(F)F)cc(N2C(=O)OC[C@H]2C(=O)N(C)c2ccc(Cl)cc2F)n1 [Example 97] .
1.04

Query (molecule): CCN(C(=O)[C@@H]1C[C@H](N2CCOC(CO)C2)CN1c1nc(C)cc(C(F)(F)F)c1C#N)c1ccc(C)c(Cl)c1 (stereo partly shown) [Example 149] ; field requested: log10 of IC50
0.70
